Tested on: Staphylococcus aureus
Procedure Details: Antibacterial activity against methicillin-resistant Staphylococcus aureus GP-021 ATCC 33591 assessed as reduction in bacterial growth in CAMHB incubated for 18 to 20 hrs by broth dilution method
Type: functional
Condition: time 18-20 hrs
Readout: log10 MIC80 (log10 of the value in µg/mL)
Remember, log10 of MIC80, in µg/mL.

What does the record list as log10 MIC80 for "CCCCCCCn1c(=O)c2c(O)cc(=O)oc2c2ccccc21" ?
0.90

Sample "CCCCCCCn1c(=O)c2c(O)cc(=O)oc2c2cc(C(C)(C)C)ccc21" — what was its log10 MIC80?
0.30

Tell me the measured log10 MIC80 of "CCCCCCCCCn1c(=O)c2c(O)cc(=O)oc2c2ccccc21" , please.
0.30

Given "CCCCCCn1c(=O)c2c(O)cc(=O)oc2c2ccccc21" , state its recorded log10 MIC80.
1.20

Consider the compound "CCCCCCCn1c(=O)c2c(O)cc(=O)oc2c2cc(F)ccc21" and give its measured log10 MIC80.
0.60

Reported log10 MIC80, compound "CCCCCCCn1c(=O)c2c(O)cc(=O)oc2c2cc(C)ccc21" : ____
1.81

// log10 MIC80 lookup, key: "CCCCCCCCn1c(=O)c2c(O)cc(=O)oc2c2ccccc21"
0.60

* * *

Test system: Staphylococcus aureus
Procedure Details: Antibacterial activity against daptomycin and methicillin resistant Staphylococcus aureus GP-036 assessed as reduction in bacterial growth in CAMHB incubated for 18 to 20 hrs by broth dilution method
Format: functional
Condition: time 18-20 hrs
Readout: MIC80 (µg/mL)
Report the value in µg/mL with no unit label.

Query (compound): "CCCCCCCCCn1c(=O)c2c(O)cc(=O)oc2c2ccccc21" ; field requested: MIC80
1

Bench note: what MIC80 did "CCCCCCCn1c(=O)c2c(O)cc(=O)oc2c2cc(Cl)ccc21" show?
1

MIC80 lookup needed for "CCCCCCCn1c(=O)c2c(O)cc(=O)oc2c2ccccc21" , thanks.
4

GET /values?readout=MIC80&item= "CCCCCCCn1c(=O)c2c(O)cc(=O)oc2c2cc(C(C)(C)C)ccc21"
1

Which MIC80 reading was recorded for the compound "CCCCCCn1c(=O)c2c(O)cc(=O)oc2c2ccccc21" ?
8

State the recorded MIC80 for this entry: "CCCCCCCn1c(=O)c2c(O)cc(=O)oc2c2cc(F)ccc21"
2

Fill in the blank: the reported MIC80 of "CCCCCCCCn1c(=O)c2c(O)cc(=O)oc2c2ccccc21" is ____.
4

* * *

Test system: Enterococcus sp.
Procedure Details: Antibacterial activity against vancomycin resistant Enterococcus sp. GP-026 ATCC 700221 assessed as reduction in bacterial growth in CAMHB incubated for 18 to 20 hrs by broth dilution method
Assay type: functional
Condition: time 18-20 hrs
Readout: log10 MIC80 (log10 of the value in µg/mL)
In our notation, the value equals log10 of MIC80 in µg/mL.

Fill in: log10 MIC80 of "CCCCCCCn1c(=O)c2c(O)cc(=O)oc2c2cc(F)ccc21" is ___
1.51

Please report the recorded log10 MIC80 for "CCCCCCCCCCn1c(=O)c2c(O)cc(=O)oc2c2ccccc21" .
-0.30

Quick one: log10 MIC80 of "CCCCCCCCCn1c(=O)c2c(O)cc(=O)oc2c2ccccc21" ?
0.60

Find the recorded log10 MIC80 belonging to "CCCCCCn1c(=O)c2c(O)cc(=O)oc2c2ccccc21" and report it.
0.90

Fill in the blank: the reported log10 MIC80 of "CCCCCCCn1c(=O)c2c(O)cc(=O)oc2c2cc(C)ccc21" is ____.
1.51

Form field: reported log10 MIC80 of "CCCCCCCn1c(=O)c2c(O)cc(=O)oc2c2cc(C(C)(C)C)ccc21"
0.60

Query (molecule): "CCCCCCCn1c(=O)c2c(O)cc(=O)oc2c2ccccc21" ; field requested: log10 MIC80
1.20

Sample "CCCCCCCn1c(=O)c2c(O)cc(=O)oc2c2cc(Cl)ccc21" — what was its log10 MIC80?
1.81

# log10 MIC80 lookup, item "CCCCCCCCn1c(=O)c2c(O)cc(=O)oc2c2ccccc21"
0.00

* * *

Test system: Staphylococcus aureus
Procedure Details: Antibacterial activity against methicillin-resistant Staphylococcus aureus GP-020 ATCC 43300 assessed as reduction in bacterial growth in CAMHB incubated for 18 to 20 hrs by broth dilution method
Format: functional
Condition: time 18-20 hrs
Assignment: determine reported MIC80 for the given compounds.

Fill in the blank: the reported MIC80 of "CCCCCCCCCCn1c(=O)c2c(O)cc(=O)oc2c2ccccc21" is ____.
4 µg/mL

Request the reported MIC80 associated with "CCCCCCCn1c(=O)c2c(O)cc(=O)oc2c2cc(C)ccc21"
1 µg/mL

Given the entry "CCCCCCCn1c(=O)c2c(O)cc(=O)oc2c2ccccc21" , report its measured MIC80.
4 µg/mL

Look at this compound and give its reported MIC80. "CCCCCCCCCn1c(=O)c2c(O)cc(=O)oc2c2ccccc21"
2 µg/mL

Which MIC80 is reported for this compound? "CCCCCCCn1c(=O)c2c(O)cc(=O)oc2c2cc(F)ccc21"
2 µg/mL

Request the reported MIC80 associated with "CCCCCCCn1c(=O)c2c(O)cc(=O)oc2c2cc(Cl)ccc21"
1 µg/mL

Endpoint output: MIC80 of "CCCCCCn1c(=O)c2c(O)cc(=O)oc2c2ccccc21" . Value?
8 µg/mL

# input compound: "CCCCCCCn1c(=O)c2c(O)cc(=O)oc2c2c(C)cc(C)cc21" ; wanted: its MIC80
> 256 µg/mL

Given "CCCCCCCCn1c(=O)c2c(O)cc(=O)oc2c2ccccc21" , state its recorded MIC80.
2 µg/mL

Need MIC80 of "CCCCCCCn1c(=O)c2c(O)cc(=O)oc2c2cc(C(C)(C)C)ccc21" , thanks.
1 µg/mL

Data request, read-out MIC80, for "CCCCCCCn1c(=O)c2c(O)cc(=O)oc2c2cc(OC)ccc21"
≤ 8 µg/mL

Can you share its MIC80? I mean this compound: "CCCCCCCn1c(=O)c2c(O)cc(=O)oc2c2cc(CCCCCC)ccc21"
256 µg/mL

* * *

System: Staphylococcus aureus
Procedure Details: Antibacterial activity against methicillin-resistant Staphylococcus aureus GP-021 ATCC 33591 assessed as reduction in bacterial growth in CAMHB incubated for 18 to 20 hrs by broth dilution method
Type: functional
Condition: time 18-20 hrs
Would you mind telling me the reported MIC80 of each entry?

Which MIC80 value belongs to "CCCCCCCn1c(=O)c2c(O)cc(=O)oc2c2cc(Cl)ccc21" ?
> 128 µg/mL

Requested read-out: MIC80. Entry: "CCCCCCCn1c(=O)c2c(O)cc(=O)oc2c2cc(CCCCCC)ccc21"
> 256 µg/mL

What MIC80 value was documented for this compound, "CCCCCCCCCCn1c(=O)c2c(O)cc(=O)oc2c2ccccc21" ?
> 64 µg/mL

I am curious: what MIC80 value has been reported for "CCCCCCCn1c(=O)c2c(O)cc(=O)oc2c2c(C)cc(C)cc21" ?
> 256 µg/mL

Data request, read-out MIC80, for "CCCCCCCn1c(=O)c2c(O)cc(=O)oc2c2cc(OC)ccc21"
≤ 8 µg/mL
